test: Human HepG2 cell viability assay in 384 well format; format: toxicity, cell-based; set-up: dose 125 nL, time 70.5 hour; concentration not given beside the values; conditions: HepG2 cells, read-out: Inhibition
Listed here: items and their measured cytotoxicity at 70.5 h.
Parameter Measured: cytotoxicity at 70.5 h (%)

> print(dat)
                                    compound  numeric.result
 1  COc1cc(C(=O)N2CCCC(c3cc(C)[nH]n3)C2)cc(OC)c1C (stereo unspecified)              29
 2              CSCc1noc(Cn2ncn3cccc3c2=O)n1           -3.25
 3  Cc1nc(O)cc(C2CCN(C(=O)C(C)Cn3nc(C)nc3C)CC2)n1 (stereo unspecified)            -4.5
 4  Cc1nn(C)c2nc(N3CCCCC3c3ccc(F)cc3)sc12 (stereo unspecified)           0.992
 5   CCNC(=O)c1ccc(NC(=O)N(C)Cc2cc(C)on2)cc1           -4.32
 6   Cc1nn(C)cc1NC(=O)CN1CCN(C2CCCC2)C(=O)C1           -6.18
 7       Brc1ccc(CN2CCC(NCc3ncc[nH]3)CC2)cc1          -0.173
 8    CN(C)c1cc(CNC(=O)Nc2cccnc2N2CCCC2)ccn1           -2.03
 9           O=C(NCC1CC1)Nc1cnc2ccc(F)cc2c1O           -3.07
10  FC(F)(F)c1cc(C2CCCN(Cc3cccnc3)C2)n[nH]1 (stereo unspecified)            9.85
11  CO[C@@H]1CCC[C@@H](NC(=O)CCCn2cncn2)[C@H]1O           -1.73
12  CN(C)C(=O)c1cccc(NC(=O)N2CCCC(C(F)(F)F)C2)c1 (stereo unspecified)           -8.44
13       Cc1cccc(OCCNC(=O)CN2CCc3cncnc3C2)c1           -7.19
14  O=C(NCC1CC2(CO1)CN(Cc1cccs1)C2)C1CCC1 (stereo unspecified)            19.9
15  NC1CCN(S(=O)(=O)c2ccc(C(=O)N3CCSCC3)cc2)C1 (stereo unspecified)           -9.37
16    COc1ccc(C)c(NC(=O)NCc2cccc(N(C)C)n2)c1           -6.19
17  CCc1ccc2nc(NCC(O)CO)cc(C)c2c1 (stereo unspecified)            1.81
18            CNC(=O)c1cc(S(=O)(=O)C(C)C)cs1            1.49
19  COCCC(=O)N1CCC2(CC1)CN(S(C)(=O)=O)Cc1ccccc1O2           -2.27
20  COc1ccc(CN2C[C@@H]3[C@H](CC(=O)N4CCCC4)[C@@H]3C2)cc1           -9.32
21  COc1ccccc1CN1CCc2c(nc(-c3ccccn3)[nH]c2=O)C1            12.7
22  CNS(=O)(=O)c1ccc(CNC(=O)N(C)C(C)COC)cc1 (stereo unspecified)           -97.7
23      COc1cccc(CC(=O)N2CCc3ncnc(C)c3CC2)c1           -5.98
24  Cc1nc(-c2ccc(CC(=O)N3CCN(C(=O)C4CC4)CC3)cc2)cs1           -1.62
25  O=C(CN1C(=O)CCC1=O)NCCc1nc(C2CC2)cc(C(F)(F)F)n1            31.4
26     Cc1nc(C2CCNCC2)cc(N(C)CCc2cn[nH]c2)n1           -3.08
27    CCOCc1cncc2c1CCN(C(=O)c1cccc(C#N)c1)C2           -1.85
28  COC(CNC(=O)C1CC1)c1ccc(C)s1 (stereo unspecified)            19.1
29  CN(C)C(=O)C1CN(Cc2nccs2)CCN(S(C)(=O)=O)C1 (stereo unspecified)            -4.9
30  Cc1noc([C@H]2C[C@H]3OCC[C@H]3N(S(=O)(=O)C3CC3)C2)n1           -11.6
31  COc1cc(N2CCC3(CCCN(C(=O)c4cnccn4)C3)C2)ncn1 (stereo unspecified)              17
32  Fc1ccc(CNCc2nnc3n2CC(C(F)(F)F)CC3)cc1 (stereo unspecified)           -13.6
33      CN(Cc1ccco1)Cc1ccccc1CNC(=O)c1cnccn1           -6.66
34  O=C(N1CCOCC1)N1C[C@H]2CC[C@@H]1CN(C1Cc3ccccc3C1)C2             5.2
35  Cc1cc(C(=O)Nc2cnn(CC(=O)NC3CCCC3)c2)c(C)s1           -6.94
36  CS(=O)(=O)N1CC[C@H]2[C@H](C[C@@H](Cn3cncn3)N2CC2CC2)C1           -1.14
37  Cc1noc([C@@H]2CC[C@@H]3[C@@H](CCN3S(=O)(=O)C3CC3)O2)n1            2.67
38  CN(C)S(=O)(=O)N1CC[C@H]2OCC[C@@]2(COc2cccnc2)C1           -12.5
39  COc1ccc(NC(=O)CCn2nc(-c3cccs3)oc2=O)cc1OC           -5.48
40  CCn1nc(C)c2nc(C(C)C)nc(NCC(=O)N3CCOCC3)c21            5.24
41  CC(=O)N1CCCC2(CN(Cc3ccncc3)CCO2)C1 (stereo unspecified)            -1.7
42  Cc1ccc(F)c(C(=O)NC2CCC(N3C(=O)CCC3=O)CC2)c1 (stereo unspecified)          -0.936
43       CN(C)C(=O)Cc1ccccc1NCc1cccc2cccnc12            57.4
44  Cc1ccc(NC2CCCN(Cc3ccc(Cl)cc3)C2)nn1 (stereo unspecified)            25.4
45  O=C(c1cnco1)N1C[C@@H]2CC[C@H](Oc3cccc(F)c3)[C@@H]2C1           -3.26
46  CCCC(=O)NCC1CCCN(Cc2cc(C)c(C)o2)C1 (stereo unspecified)           0.818
